Test system: RARa homodimer (NR concentration 270 nM)
Test: PBM binding z-score (relative to random genomic background probes); higher = stronger binding; sequences stand for … in GC…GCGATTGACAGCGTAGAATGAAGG
Readings of PBM binding z-score for the listed sequences
Observation Type: PBM binding z-score

| Seq Text | Experimental Target | Obs Value |
| --- | --- | --- |
| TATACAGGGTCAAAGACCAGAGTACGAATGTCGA | RARa homodimer (NR concentration 270 nM) | 0.668 |
| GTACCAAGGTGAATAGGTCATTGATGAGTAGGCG | RARa homodimer (NR concentration 270 nM) | 1.5 |
| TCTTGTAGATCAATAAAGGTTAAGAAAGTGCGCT | RARa homodimer (NR concentration 270 nM) | 1.6 |
| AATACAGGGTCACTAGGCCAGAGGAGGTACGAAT | RARa homodimer (NR concentration 270 nM) | 0.96 |
| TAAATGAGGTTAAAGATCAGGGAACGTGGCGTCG | RARa homodimer (NR concentration 270 nM) | 1.03 |
| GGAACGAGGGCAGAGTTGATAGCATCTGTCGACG | RARa homodimer (NR concentration 270 nM) | -0.977 |
| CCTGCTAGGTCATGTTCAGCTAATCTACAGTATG | RARa homodimer (NR concentration 270 nM) | -0.173 |
| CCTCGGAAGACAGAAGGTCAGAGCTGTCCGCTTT | RARa homodimer (NR concentration 270 nM) | 0.512 |
| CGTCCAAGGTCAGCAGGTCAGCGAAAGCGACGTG | RARa homodimer (NR concentration 270 nM) | 1.49 |
| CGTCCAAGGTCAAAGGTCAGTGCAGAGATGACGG | RARa homodimer (NR concentration 270 nM) | 3.59 |
| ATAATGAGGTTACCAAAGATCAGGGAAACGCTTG | RARa homodimer (NR concentration 270 nM) | 1.22 |
| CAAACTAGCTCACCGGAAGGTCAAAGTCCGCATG | RARa homodimer (NR concentration 270 nM) | 0.685 |
| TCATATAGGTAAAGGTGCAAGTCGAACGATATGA | RARa homodimer (NR concentration 270 nM) | 0.796 |
| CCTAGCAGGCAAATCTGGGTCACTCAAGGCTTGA | RARa homodimer (NR concentration 270 nM) | -0.416 |
| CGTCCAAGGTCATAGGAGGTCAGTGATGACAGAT | RARa homodimer (NR concentration 270 nM) | 2.24 |
| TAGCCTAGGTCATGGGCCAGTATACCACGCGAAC | RARa homodimer (NR concentration 270 nM) | -0.386 |
| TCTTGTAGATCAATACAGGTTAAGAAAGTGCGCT | RARa homodimer (NR concentration 270 nM) | 0.461 |
| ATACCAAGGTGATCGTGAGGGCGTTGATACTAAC | RARa homodimer (NR concentration 270 nM) | 0.505 |
| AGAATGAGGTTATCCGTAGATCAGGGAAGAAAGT | RARa homodimer (NR concentration 270 nM) | 0.02 |
| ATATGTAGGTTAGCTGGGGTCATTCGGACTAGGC | RARa homodimer (NR concentration 270 nM) | 1.19 |
| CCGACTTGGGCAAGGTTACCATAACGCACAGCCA | RARa homodimer (NR concentration 270 nM) | 0.309 |
| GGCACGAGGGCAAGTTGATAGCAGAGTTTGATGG | RARa homodimer (NR concentration 270 nM) | -0.327 |
| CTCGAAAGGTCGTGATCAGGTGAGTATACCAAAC | RARa homodimer (NR concentration 270 nM) | 0.477 |
| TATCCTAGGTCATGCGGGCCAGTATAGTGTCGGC | RARa homodimer (NR concentration 270 nM) | -0.133 |
| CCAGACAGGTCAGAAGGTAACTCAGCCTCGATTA | RARa homodimer (NR concentration 270 nM) | 0.911 |
| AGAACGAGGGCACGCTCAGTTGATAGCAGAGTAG | RARa homodimer (NR concentration 270 nM) | -0.377 |
| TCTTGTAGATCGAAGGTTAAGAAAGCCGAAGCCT | RARa homodimer (NR concentration 270 nM) | -0.208 |
| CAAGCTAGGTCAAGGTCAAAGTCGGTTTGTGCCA | RARa homodimer (NR concentration 270 nM) | 1.43 |
| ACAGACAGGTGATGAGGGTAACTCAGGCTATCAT | RARa homodimer (NR concentration 270 nM) | -0.698 |
| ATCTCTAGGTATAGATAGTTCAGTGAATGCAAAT | RARa homodimer (NR concentration 270 nM) | 0.807 |
| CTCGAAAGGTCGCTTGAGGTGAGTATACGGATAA | RARa homodimer (NR concentration 270 nM) | 0.149 |
| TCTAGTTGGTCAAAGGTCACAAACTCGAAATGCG | RARa homodimer (NR concentration 270 nM) | 3.07 |
| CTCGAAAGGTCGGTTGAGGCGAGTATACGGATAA | RARa homodimer (NR concentration 270 nM) | -0.443 |
| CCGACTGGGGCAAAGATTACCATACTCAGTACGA | RARa homodimer (NR concentration 270 nM) | -0.293 |
| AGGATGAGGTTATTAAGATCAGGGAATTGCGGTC | RARa homodimer (NR concentration 270 nM) | 0.954 |
| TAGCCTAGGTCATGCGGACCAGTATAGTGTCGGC | RARa homodimer (NR concentration 270 nM) | -0.507 |
| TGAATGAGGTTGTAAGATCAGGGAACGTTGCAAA | RARa homodimer (NR concentration 270 nM) | -0.183 |
| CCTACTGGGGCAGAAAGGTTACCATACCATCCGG | RARa homodimer (NR concentration 270 nM) | 0.396 |
| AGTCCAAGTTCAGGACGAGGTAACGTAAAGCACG | RARa homodimer (NR concentration 270 nM) | -0.0097 |
| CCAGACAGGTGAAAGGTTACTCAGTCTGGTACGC | RARa homodimer (NR concentration 270 nM) | 0.58 |
| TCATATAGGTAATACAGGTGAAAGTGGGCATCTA | RARa homodimer (NR concentration 270 nM) | 1.57 |
| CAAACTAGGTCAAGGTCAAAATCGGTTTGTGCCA | RARa homodimer (NR concentration 270 nM) | 1.1 |
| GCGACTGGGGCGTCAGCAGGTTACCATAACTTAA | RARa homodimer (NR concentration 270 nM) | -1.15 |
| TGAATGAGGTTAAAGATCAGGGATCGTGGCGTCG | RARa homodimer (NR concentration 270 nM) | -0.37 |
| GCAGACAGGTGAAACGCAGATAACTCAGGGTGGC | RARa homodimer (NR concentration 270 nM) | -0.365 |
| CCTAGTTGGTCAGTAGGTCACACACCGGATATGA | RARa homodimer (NR concentration 270 nM) | 2.47 |
| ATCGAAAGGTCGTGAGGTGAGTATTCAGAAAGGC | RARa homodimer (NR concentration 270 nM) | 0.587 |
| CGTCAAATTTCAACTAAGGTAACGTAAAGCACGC | RARa homodimer (NR concentration 270 nM) | 1.04 |
| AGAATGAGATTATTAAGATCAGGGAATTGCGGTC | RARa homodimer (NR concentration 270 nM) | 0.637 |
| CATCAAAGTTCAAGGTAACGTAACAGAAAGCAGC | RARa homodimer (NR concentration 270 nM) | 2.21 |
